// cell viability lookup, one value per entry
# Tested on: Calu-3
# testProtocol: cell viability relative to DMSO; higher = less toxic
# conditionSummary: 72 h; 10 nM
Write it as a number; the unit % goes unstated.

[
  {
    "compound": "CC(=O)SC[C@@H](C)C(=O)N1CCC[C@H]1C(=O)N[C@@H](Cc1ccccc1)C(=O)O",
    "unitOfMeasure": "%",
    "obsValue": 108
  },
  {
    "compound": "Fc1cccc(/C=N/N=C/c2cccc(F)c2)c1",
    "unitOfMeasure": "%",
    "obsValue": 111
  },
  {
    "compound": "O=C(O)CCCCC(CCSCc1ccccc1)SCc1ccccc1 (centres undefined)",
    "unitOfMeasure": "%",
    "obsValue": 104
  },
  {
    "compound": "CC(C)(C)NC(=O)N[C@H](C(=O)N1C[C@H]2[C@@H]([C@H]1C(=O)NC(CC1CCC1)C(=O)C(N)=O)C2(C)C)C(C)(C)C (some centres undefined)",
    "unitOfMeasure": "%",
    "obsValue": 101
  },
  {
    "compound": "CC/C(=C(/c1ccc(OCCN(C)C)cc1)c1cccc(O)c1)c1ccccc1",
    "unitOfMeasure": "%",
    "obsValue": 96.2
  },
  {
    "compound": "c1ccc(-c2n[nH]cc2-c2ccnc3ccccc23)nc1",
    "unitOfMeasure": "%",
    "obsValue": 105
  },
  {
    "compound": "Cc1ccc2c(N3CCN(CCc4cccc(N5CCNC5=O)c4)CC3)cccc2n1",
    "unitOfMeasure": "%",
    "obsValue": 94.8
  },
  {
    "compound": "O=C(NN1C(=O)[C@@H]2[C@@H]3C=C[C@@H]([C@H]4C[C@@H]34)[C@@H]2C1=O)c1ccc(C(F)(F)F)cc1",
    "unitOfMeasure": "%",
    "obsValue": 90.3
  }
]

Next:
Bench note: what cell viability did `O=S1(=O)N[C@H]2CCCN2c2ccccc21` show?
106

###

# Test system: Calu-3
# testProtocol: drug sensitivity score (DSS) for viability; higher = more toxic; extreme values may be limits of the assay
# conditionSummary: 72 h
readoutLabel: drug sensitivity score

// worked examples, drug sensitivity score included
[
  {
    "molecule": "CCOc1ccc2nc(SCCN3CCOCC3)[nH]c2c1",
    "readoutLabel": "drug sensitivity score",
    "obsValue": 0
  },
  {
    "molecule": "Cc1c(C(=O)NN2CCOCC2)nn(-c2ccc(Cl)cc2Cl)c1-c1ccc(I)cc1",
    "readoutLabel": "drug sensitivity score",
    "obsValue": 0.2
  },
  {
    "molecule": "O=C(O)Cc1ccc(OCCNC[C@H](O)c2ccccc2)cc1",
    "readoutLabel": "drug sensitivity score",
    "obsValue": 0
  }
]

Bench note: what drug sensitivity score did `CCN(CC)CCOCCOC(=O)C(CC)(CC)c1ccccc1` show?
0

Also check `O=C(Nc1cc(-c2ccccc2)nn1-c1ccccc1)c1ccc([N+](=O)[O-])cc1`
0

Also check CCOc1ccc(-n2c([C@@H](C)N(Cc3cccnc3)C(=O)Cc3ccc(F)c(C(F)(F)F)c3)nc3ncccc3c2=O)cc1 (racemic)
0

Also check `Cc1c[nH]c(=O)n(CCCN2CCN(c3ccccc3OCC(F)(F)F)CC2)c1=O`
0.3

Also check `COc1ccc(C(=O)c2ccccc2O)c(O)c1`
0

Also check `COc1cc2c(cc1OC)CC(=O)N(CCCN(C)C[C@H]1Cc3cc(OC)c(OC)cc31)CC2`
0

Also check `c1ccc(Cn2c(-c3ccc(OC[C@H](C4CCNCC4)n4c(-c5ccccc5)nc5ccccc54)cc3)nc3ccccc32)cc1`
5.1

Also check `O=[N+]([O-])c1cccc2cn[nH]c12`
0

Also check `Nc1nc(-c2nn(Cc3ccccc3F)c3ncccc23)ncc1C1CC1`
0

Also check `Cn1c(C#N)ccc1-c1ccc2c(c1)C(C)(C)OC(=S)N2`
0

Also check CCNC1=Nc2ccc(Cl)cc2C(C)(c2ccccc2)O1 (stereo not drawn)
0

Also check `O=C1Nc2ccccc2C2(CCN(CCc3ccc(C(F)(F)F)cc3)CC2)O1`
0.2

Also check `CC(C)OC(=O)c1cc2c(OC[C@@H](O)CNC(C)(C)C)cccc2[nH]1`
0

Also check `C#CCN(C)[C@H](C)Cc1ccccc1`
0

Also check `CCCCCCCCCCC(C)(C)C(=O)Nc1c(OC)cc(OC)cc1OC`
0

Also check C[N+]1(C)CCc2cc3c(cc2[C@H]1[C@@H]1OC(=O)c2c1ccc1c2OCO1)OCO3 [bicuculline-methochloride-(-)]
0

Also check `O=C1C(O)=C(O)C(=O)C(O)=C1O`
0
